Cited source: paper PMC3789093

target: CYP3A4 (Homo sapiens, UniProt P08684)
Sequence (P08684 2-503): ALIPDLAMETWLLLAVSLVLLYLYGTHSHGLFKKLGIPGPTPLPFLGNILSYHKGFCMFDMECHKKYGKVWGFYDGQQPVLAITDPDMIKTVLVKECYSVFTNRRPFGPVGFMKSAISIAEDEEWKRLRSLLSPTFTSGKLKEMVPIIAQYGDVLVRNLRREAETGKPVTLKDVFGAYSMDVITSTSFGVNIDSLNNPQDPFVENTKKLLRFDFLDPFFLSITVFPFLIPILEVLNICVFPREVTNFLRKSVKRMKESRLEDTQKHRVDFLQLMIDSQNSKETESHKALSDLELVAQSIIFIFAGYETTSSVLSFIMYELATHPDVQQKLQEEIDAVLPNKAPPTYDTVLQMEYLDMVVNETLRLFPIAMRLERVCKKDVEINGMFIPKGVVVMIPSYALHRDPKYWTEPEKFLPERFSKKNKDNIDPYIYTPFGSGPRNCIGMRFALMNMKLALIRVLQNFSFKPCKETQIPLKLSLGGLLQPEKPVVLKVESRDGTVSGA
reported property: IC50 (µM)
Report the figure in µM without appending any unit label.

Request the reported IC50 associated with `CC(=O)O[C@H]1CC(C)(C)C(=C=C/C(C)=C/C=C/C(C)=C/C=C/C=C(C)/C=C/C=C(\C)C(=O)C[C@@]23O[C@]2(C)C[C@@H](O)CC3(C)C)[C@](C)(O)C1` 11

###

Target: UniProt:P04798
Sequence (P04798 1-512): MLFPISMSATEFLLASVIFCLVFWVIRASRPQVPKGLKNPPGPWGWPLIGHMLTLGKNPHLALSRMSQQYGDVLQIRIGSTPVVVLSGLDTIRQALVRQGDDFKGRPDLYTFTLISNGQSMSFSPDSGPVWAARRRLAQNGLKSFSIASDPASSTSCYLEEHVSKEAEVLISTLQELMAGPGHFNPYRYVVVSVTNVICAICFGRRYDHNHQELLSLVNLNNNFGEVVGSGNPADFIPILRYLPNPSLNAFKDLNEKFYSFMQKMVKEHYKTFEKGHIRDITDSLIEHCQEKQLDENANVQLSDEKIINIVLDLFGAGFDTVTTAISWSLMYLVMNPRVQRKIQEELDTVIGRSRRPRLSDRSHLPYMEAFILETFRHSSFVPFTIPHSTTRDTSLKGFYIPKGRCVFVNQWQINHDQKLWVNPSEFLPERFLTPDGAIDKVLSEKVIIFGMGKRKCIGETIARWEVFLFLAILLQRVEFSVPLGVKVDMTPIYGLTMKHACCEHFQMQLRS
Test: P450-Glo CYP1A1 luminescence assay, recombinant enzyme in microsomes
reported property: IC50
Respond with a number, then the unit of measure.

Request the reported IC50 associated with `CC(=O)O[C@H]1CC(C)(C)C(=C=C/C(C)=C/C=C/C(C)=C/C=C/C=C(C)/C=C/C=C(\C)C(=O)C[C@@]23O[C@]2(C)C[C@@H](O)CC3(C)C)[C@](C)(O)C1` 12.5 µM
